# Test system: HCC1569 cells
# assay overview: Cell proliferation assay (Incucyte growth inhibition, synergy)
# Type: cell-based
# test parameters: Homo sapiens, HCC1569, growth inhibition, three replicates
# From the text: Per cent confluence relative to a non-treated control was used to evaluate growth inhibition induced by test compounds. […] (https://synergyfinder.fimm.fi).
Recorded EC50, one value per entry.
# value in µM; strip the unit string

C=CCn1c(=O)c2cnc(Nc3ccc(N4CCN(C)CC4)cc3)nc2n1-c1cccc(C(C)(C)O)n1 0.054

## Input Tell me the measured EC50 of Cc1cc2c(C(N)=O)c(N)n(-c3c(C)ccc(O)c3C)c2nc1C , please.
## Output 0.028
